# system-under-test: Protein deacetylase HDAC6 (Homo sapiens)
# assay-summary: Inhibition of recombinant N-terminal GST-tagged full length human HDAC6 expressed in baculovirus infected insect Sf9 cells using fluorogenic HDAC substrate 3 after 30 mins by fluorescence assay
experimental-endpoint: pIC50
Schema: pIC50 number; meaning minus log10 of the concentration expressed in molar units.

Request: Give the reported value of pIC50 for this record: CN1c2ccc(NCc3ccc(-c4noc(CCCCCCC(=O)NO)n4)cc3)cc2C(=O)N2CCc3c([nH]c4ccc(O)cc34)C21 (stereo unspecified)
Response: 7.89

---

# system-under-test: UniProt Q92769
# Sequence (Q92769 whole entry): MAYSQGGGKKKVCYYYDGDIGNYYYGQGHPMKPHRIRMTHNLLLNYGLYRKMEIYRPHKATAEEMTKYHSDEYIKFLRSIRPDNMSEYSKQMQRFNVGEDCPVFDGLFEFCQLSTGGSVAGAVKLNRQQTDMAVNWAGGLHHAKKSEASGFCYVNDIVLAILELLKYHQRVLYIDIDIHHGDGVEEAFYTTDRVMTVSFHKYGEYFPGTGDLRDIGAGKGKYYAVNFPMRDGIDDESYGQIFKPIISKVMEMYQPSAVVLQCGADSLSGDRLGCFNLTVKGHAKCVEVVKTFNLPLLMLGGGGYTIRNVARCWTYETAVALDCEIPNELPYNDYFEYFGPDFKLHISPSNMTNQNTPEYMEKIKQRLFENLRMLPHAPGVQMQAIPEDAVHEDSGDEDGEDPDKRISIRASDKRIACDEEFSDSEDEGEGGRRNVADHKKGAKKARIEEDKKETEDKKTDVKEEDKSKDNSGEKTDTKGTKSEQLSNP
# assay-summary: Inhibition of recombinant C-terminal His-tagged full length human HDAC2 expressed in baculovirus infected insect Sf9 cells using fluorogenic HDAC substrate 3 after 30 mins by fluorescence assay
experimental-endpoint: IC50 (nM)
Unit nM implied. Number only.

Request: Find IC50 for CN1c2ccc(NCc3ccc(-c4noc(CCCCCCC(=O)NO)n4)cc3)cc2C(=O)N2CCc3c([nH]c4ccc(O)cc34)C21 (stereo unspecified) on UniProt Q92769 and write it down.
Response: 275

---

Each entry below carries its reported IC50.
# system-under-test: Histone deacetylase 1 (Homo sapiens)
# Sequence (Q13547 whole entry): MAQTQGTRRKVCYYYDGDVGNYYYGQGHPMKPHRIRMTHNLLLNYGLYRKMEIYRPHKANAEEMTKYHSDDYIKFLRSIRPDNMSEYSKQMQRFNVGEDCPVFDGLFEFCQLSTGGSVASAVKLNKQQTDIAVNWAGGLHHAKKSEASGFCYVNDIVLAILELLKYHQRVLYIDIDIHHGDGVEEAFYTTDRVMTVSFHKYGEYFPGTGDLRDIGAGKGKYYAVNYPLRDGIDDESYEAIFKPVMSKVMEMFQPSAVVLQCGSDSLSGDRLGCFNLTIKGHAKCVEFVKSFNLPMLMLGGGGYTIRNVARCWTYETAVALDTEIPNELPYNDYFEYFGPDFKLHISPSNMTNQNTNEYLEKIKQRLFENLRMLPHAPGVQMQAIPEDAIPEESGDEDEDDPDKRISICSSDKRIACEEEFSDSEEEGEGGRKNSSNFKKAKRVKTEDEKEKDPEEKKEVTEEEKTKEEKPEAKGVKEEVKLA
# assay-summary: Inhibition of recombinant full length human HDAC1 (1 to 482) expressed in baculovirus infected insect Sf9 cells using fluorogenic HDAC substrate 3 after 30 mins by fluorescence assay

{"molecule": "CN1c2ccc(NCc3ccc(NC(=O)CCCCCCC(=O)NO)cc3)cc2C(=O)N2CCc3c([nH]c4ccc(O)cc34)C21 (centres undefined)", "system-under-test": "Histone deacetylase 1 (Homo sapiens)", "experimental-endpoint": "IC50", "observed": "30 nM"}
{"molecule": "CN1c2ccc(NCc3ccc(-c4noc(CCCCCCC(=O)NO)n4)cc3)cc2C(=O)N2CCc3c([nH]c4ccc(O)cc34)C21 (centres undefined)", "system-under-test": "Histone deacetylase 1 (Homo sapiens)", "experimental-endpoint": "IC50", "observed": "24 nM"}
{"molecule": "CN1c2ccc(NCc3ccc(-c4noc(CCCC(=O)NO)n4)cc3)cc2C(=O)N2CCc3c([nH]c4ccc(O)cc34)C21 (centres undefined)", "system-under-test": "Histone deacetylase 1 (Homo sapiens)", "experimental-endpoint": "IC50", "observed": "321 nM"}

Request: Give the reported value of IC50 for this record: CN1c2ccc(NCc3ccc(-c4nnc(CCCCCCC(=O)NO)o4)cc3)cc2C(=O)N2CCc3c([nH]c4ccc(O)cc34)C21 (centres undefined)
Response: 89 nM

---

Each entry below carries its reported IC50.
# system-under-test: UniProt Q13547
# assay-summary: Inhibition of recombinant full length human HDAC1 (1 to 482) expressed in baculovirus infected insect Sf9 cells using fluorogenic HDAC substrate 3 after 30 mins by fluorescence assay
Unit µM implied. Number only.

Example results:
{"compound": "CN1c2ccc(NCc3ccc(-c4noc(CCCCC(=O)NO)n4)cc3)cc2C(=O)N2CCc3c([nH]c4ccc(O)cc34)C21 (stereo not given)", "IC50 [µM]": 0.19}
{"compound": "CN1c2ccc(NCc3ccc(-c4nnc(CCCCC(=O)NO)o4)cc3)cc2C(=O)N2CCc3c([nH]c4ccc(O)cc34)C21 (stereo not given)", "IC50 [µM]": 0.093}

Shift focus to the following entry.
Request: Find IC50 for COc1ccc2[nH]c3c(c2c1)CCN1C(=O)c2cc(NC(=O)CCCCC(=O)NO)ccc2N(C)C31 (stereo not given) on UniProt Q13547 and write it down.
Response: 0.275

---

# assay-summary: Cytotoxicity against HLF assessed as growth inhibition after 72 hrs by MTT assay
# Format: functional
# test-conditions: Homo sapiens
Kindly note that classification relies on IC50 with these boundaries: bottom range = under 6 µM, center range = from 6 µM up to 30 µM, top range = 30 µM and over

Request: Assign a category based on measured IC50 for CN1c2ccc(NCc3ccc(-c4noc(CCCC(=O)NO)n4)cc3)cc2C(=O)N2CCc3c([nH]c4ccc(O)cc34)C21 (stereo not given) and give only the class name.
Response: center range

Request: Assign a category based on measured IC50 for CN1c2ccc(NCc3ccc(-c4nnc(CCCCC(=O)NO)o4)cc3)cc2C(=O)N2CCc3c([nH]c4ccc(O)cc34)C21 (stereo not given) and give only the class name.
Response: center range

Request: Assign a category based on measured IC50 for COc1ccc2[nH]c3c(c2c1)CCN1C(=O)c2cc(NC(=O)CCCCCC(=O)NO)ccc2N(C)C31 (stereo not given) and give only the class name.
Response: top range

Request: Assign a category based on measured IC50 for CN1c2ccc(N)cc2C(=O)N2CCc3c([nH]c4ccc(O)cc34)C21 (stereo not given) and give only the class name.
Response: bottom range

Request: Assign a category based on measured IC50 for CN1c2ccc(NCc3ccc(-c4noc(CCCCCCC(=O)NO)n4)cc3)cc2C(=O)N2CCc3c([nH]c4ccc(O)cc34)C21 (stereo not given) and give only the class name.
Response: bottom range

Request: Assign a category based on measured IC50 for COc1ccc2[nH]c3c(c2c1)CCN1C(=O)c2cc(NC(=O)CCCCC(=O)NO)ccc2N(C)C31 (stereo not given) and give only the class name.
Response: top range

Request: Assign a category based on measured IC50 for CN1c2ccc(NCc3ccc(-c4nnc(CCCC(=O)NO)o4)cc3)cc2C(=O)N2CCc3c([nH]c4ccc(O)cc34)C21 (stereo not given) and give only the class name.
Response: top range

Request: Assign a category based on measured IC50 for CN1c2ccc(NCc3ccc(-c4noc(CCCCC(=O)NO)n4)cc3)cc2C(=O)N2CCc3c([nH]c4ccc(O)cc34)C21 (stereo not given) and give only the class name.
Response: center range

Request: Assign a category based on measured IC50 for CN1c2ccc(NCc3ccc(NC(=O)CCCCCCC(=O)NO)cc3)cc2C(=O)N2CCc3c([nH]c4ccc(O)cc34)C21 (stereo not given) and give only the class name.
Response: center range

---

# system-under-test: DNA topoisomerase 1 (Homo sapiens)
# assay-summary: Inhibition of topoisomerase1 (unknown origin)-mediated pBR322 DNA relaxation at 50 uM after 15 mins by agarose gel electrophoresis
Active and inactive are the calls of the source. The calls are words filed in the database; no cut-off is given here.
Hello, when you answer, please use one of the following outcomes: 1 (active), -1 (inactive)

Here's what some known entries look like.
{"compound": "CN1c2ccc(NCc3ccc(-c4noc(CCCCC(=O)NO)n4)cc3)cc2C(=O)N2CCc3c([nH]c4ccc(O)cc34)C21 (stereo not given)", "label": 1}
{"compound": "CN1c2ccc(NCc3ccc(-c4noc(CCCCCCC(=O)NO)n4)cc3)cc2C(=O)N2CCc3c([nH]c4ccc(O)cc34)C21 (stereo not given)", "label": 1}
{"compound": "CN1c2ccc(NCc3ccc(-c4nnc(CCCCC(=O)NO)o4)cc3)cc2C(=O)N2CCc3c([nH]c4ccc(O)cc34)C21 (stereo not given)", "label": 1}
{"compound": "CN1c2ccc(N)cc2C(=O)N2CCc3c([nH]c4ccc(O)cc34)C21 (stereo not given)", "label": 1}
{"compound": "COc1ccc2[nH]c3c(c2c1)CCN1C(=O)c2cc(NC(=O)CCCCC(=O)NO)ccc2N(C)C31 (stereo not given)", "label": -1}

Request: Test call, this compound: CN1c2ccc(NCc3ccc(NC(=O)CCCCCCC(=O)NO)cc3)cc2C(=O)N2CCc3c([nH]c4ccc(O)cc34)C21 (stereo not given)
Response: 1

Request: Test call, this compound: CN1c2ccc(NCc3ccc(-c4nnc(CCCCCCC(=O)NO)o4)cc3)cc2C(=O)N2CCc3c([nH]c4ccc(O)cc34)C21 (stereo not given)
Response: 1

Request: Test call, this compound: COc1ccc2[nH]c3c(c2c1)CCN1C(=O)c2cc(NC(=O)CCCCCC(=O)NO)ccc2N(C)C31 (stereo not given)
Response: -1

Request: Test call, this compound: CN1c2ccc(NCc3ccc(-c4noc(CCCC(=O)NO)n4)cc3)cc2C(=O)N2CCc3c([nH]c4ccc(O)cc34)C21 (stereo not given)
Response: 1

Request: Test call, this compound: CN1c2ccc(NCc3ccc(-c4nnc(CCCC(=O)NO)o4)cc3)cc2C(=O)N2CCc3c([nH]c4ccc(O)cc34)C21 (stereo not given)
Response: 1

---

# system-under-test: Histone deacetylase 3/Nuclear receptor corepressor 2 (HDAC3/NCoR2) (Homo sapiens)
# Sequence (O15379 whole entry): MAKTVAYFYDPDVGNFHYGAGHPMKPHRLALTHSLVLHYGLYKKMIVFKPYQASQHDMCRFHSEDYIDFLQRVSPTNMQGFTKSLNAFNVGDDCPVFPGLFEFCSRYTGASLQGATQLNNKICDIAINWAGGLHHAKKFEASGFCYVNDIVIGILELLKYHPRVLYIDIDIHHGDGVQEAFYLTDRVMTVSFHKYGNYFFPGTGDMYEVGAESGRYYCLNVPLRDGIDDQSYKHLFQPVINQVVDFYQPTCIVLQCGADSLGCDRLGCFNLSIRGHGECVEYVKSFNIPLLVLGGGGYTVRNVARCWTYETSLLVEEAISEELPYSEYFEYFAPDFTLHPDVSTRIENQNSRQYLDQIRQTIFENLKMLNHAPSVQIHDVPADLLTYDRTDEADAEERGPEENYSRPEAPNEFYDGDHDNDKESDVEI
# Sequence (Q9Y618 whole entry, further chain): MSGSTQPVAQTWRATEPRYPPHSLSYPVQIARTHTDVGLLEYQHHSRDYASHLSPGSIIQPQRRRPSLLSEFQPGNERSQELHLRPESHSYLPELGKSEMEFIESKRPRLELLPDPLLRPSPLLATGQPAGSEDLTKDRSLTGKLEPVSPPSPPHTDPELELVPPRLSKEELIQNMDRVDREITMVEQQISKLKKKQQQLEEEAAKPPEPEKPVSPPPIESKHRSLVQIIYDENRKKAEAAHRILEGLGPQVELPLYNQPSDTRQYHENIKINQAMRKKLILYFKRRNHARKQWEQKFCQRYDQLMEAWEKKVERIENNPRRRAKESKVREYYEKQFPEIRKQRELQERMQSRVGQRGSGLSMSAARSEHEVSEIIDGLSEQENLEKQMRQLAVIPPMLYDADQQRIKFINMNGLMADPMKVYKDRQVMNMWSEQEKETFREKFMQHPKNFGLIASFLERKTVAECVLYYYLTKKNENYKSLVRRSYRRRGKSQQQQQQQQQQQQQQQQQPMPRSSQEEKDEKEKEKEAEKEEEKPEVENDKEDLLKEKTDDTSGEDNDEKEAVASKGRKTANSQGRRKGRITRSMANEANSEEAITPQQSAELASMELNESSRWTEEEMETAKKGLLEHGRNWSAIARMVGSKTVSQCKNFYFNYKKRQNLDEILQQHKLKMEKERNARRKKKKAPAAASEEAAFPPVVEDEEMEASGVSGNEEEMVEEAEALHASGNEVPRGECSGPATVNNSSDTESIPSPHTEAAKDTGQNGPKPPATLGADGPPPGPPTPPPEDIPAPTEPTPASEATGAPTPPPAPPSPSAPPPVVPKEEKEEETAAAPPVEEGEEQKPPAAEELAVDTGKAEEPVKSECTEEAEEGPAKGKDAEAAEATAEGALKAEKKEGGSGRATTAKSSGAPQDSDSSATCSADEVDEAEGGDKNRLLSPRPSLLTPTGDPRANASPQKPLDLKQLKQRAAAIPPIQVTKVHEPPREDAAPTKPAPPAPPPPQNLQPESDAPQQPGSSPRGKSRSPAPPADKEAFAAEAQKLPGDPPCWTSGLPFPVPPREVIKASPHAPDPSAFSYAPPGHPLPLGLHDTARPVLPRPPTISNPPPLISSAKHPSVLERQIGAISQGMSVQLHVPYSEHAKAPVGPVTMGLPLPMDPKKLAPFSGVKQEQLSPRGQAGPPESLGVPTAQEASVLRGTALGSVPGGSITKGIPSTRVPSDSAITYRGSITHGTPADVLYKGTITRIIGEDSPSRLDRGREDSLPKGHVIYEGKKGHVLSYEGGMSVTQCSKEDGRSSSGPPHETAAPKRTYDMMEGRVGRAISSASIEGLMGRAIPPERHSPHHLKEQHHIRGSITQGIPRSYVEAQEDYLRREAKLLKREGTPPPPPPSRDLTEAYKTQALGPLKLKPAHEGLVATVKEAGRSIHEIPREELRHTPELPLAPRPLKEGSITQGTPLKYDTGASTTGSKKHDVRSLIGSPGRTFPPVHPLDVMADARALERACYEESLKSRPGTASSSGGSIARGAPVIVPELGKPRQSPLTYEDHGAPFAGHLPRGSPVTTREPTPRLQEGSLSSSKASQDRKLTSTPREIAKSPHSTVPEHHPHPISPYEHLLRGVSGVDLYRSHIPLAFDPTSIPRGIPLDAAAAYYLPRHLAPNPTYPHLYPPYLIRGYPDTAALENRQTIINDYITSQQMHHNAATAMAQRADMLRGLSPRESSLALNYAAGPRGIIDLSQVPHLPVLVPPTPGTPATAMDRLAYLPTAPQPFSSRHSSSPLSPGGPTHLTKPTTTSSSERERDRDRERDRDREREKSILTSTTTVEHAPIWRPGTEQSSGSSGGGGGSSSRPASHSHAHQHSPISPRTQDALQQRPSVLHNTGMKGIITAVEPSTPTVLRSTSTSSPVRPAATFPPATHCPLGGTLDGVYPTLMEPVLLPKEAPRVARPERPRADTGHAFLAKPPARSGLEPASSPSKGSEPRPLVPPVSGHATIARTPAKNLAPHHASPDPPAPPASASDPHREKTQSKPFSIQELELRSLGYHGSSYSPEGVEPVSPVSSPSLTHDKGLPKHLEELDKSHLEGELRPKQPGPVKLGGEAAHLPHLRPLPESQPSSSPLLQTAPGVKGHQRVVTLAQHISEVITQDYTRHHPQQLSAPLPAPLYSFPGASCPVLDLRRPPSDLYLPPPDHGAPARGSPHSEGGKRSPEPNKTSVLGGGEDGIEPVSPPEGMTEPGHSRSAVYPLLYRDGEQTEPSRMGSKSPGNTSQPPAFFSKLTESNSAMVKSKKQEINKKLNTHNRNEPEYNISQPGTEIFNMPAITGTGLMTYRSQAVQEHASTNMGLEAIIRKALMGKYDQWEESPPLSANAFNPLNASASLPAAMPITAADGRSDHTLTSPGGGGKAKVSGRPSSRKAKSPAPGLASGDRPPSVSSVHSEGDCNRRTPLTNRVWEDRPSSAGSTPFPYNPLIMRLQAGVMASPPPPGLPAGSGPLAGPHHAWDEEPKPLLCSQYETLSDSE
# assay-summary: Inhibition of recombinant C-terminal His-tagged full length human HDAC3/NcoR2 complex expressed in baculovirus infected insect Sf9 cells using fluorogenic HDAC substrate 3 after 30 mins by fluorescence assay
experimental-endpoint: IC50

Request: Find IC50 for CN1c2ccc(NCc3ccc(-c4noc(CCCCCCC(=O)NO)n4)cc3)cc2C(=O)N2CCc3c([nH]c4ccc(O)cc34)C21 (stereo unspecified) on Histone deacetylase 3/Nuclear receptor corepressor 2 (HDAC3/NCoR2) (Homo sapiens) and write it down.
Response: 71 nM

---

# system-under-test: Histone deacetylase 8 (Homo sapiens)
# Sequence (Q9BY41 whole entry): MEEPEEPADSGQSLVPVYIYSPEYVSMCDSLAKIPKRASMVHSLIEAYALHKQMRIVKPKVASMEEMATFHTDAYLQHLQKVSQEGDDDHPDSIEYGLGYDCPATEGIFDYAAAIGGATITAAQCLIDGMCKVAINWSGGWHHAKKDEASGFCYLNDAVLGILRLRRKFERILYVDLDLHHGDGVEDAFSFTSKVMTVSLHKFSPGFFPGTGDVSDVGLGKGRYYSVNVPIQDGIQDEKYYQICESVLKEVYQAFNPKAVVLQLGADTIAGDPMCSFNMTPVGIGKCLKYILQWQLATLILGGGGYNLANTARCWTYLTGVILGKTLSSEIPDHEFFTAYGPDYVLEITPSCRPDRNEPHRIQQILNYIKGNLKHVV
# assay-summary: Inhibition of recombinant C-terminal His-tagged full length human HDAC8 expressed in baculovirus infected insect Sf9 cells using fluorogenic HDAC class 2a substrate after 30 mins by fluorescence assay
experimental-endpoint: pIC50
Schema: pIC50 number; meaning minus log10 of the concentration expressed in molar units.

Request: Give the reported value of pIC50 for this record: CN1c2ccc(NCc3ccc(-c4noc(CCCCCCC(=O)NO)n4)cc3)cc2C(=O)N2CCc3c([nH]c4ccc(O)cc34)C21 (stereo unspecified)
Response: 5.60
